Measured melting point values are reported for all entries that follow.

1. N#Cc1nc2ccccc2[nH]1 | 268 °C

[Q] Fill blank: measured melting point of the compound C1=C(c2c[nH]c3ccccc23)CCN(CC2COc3ccc4nocc4c3O2)C1 (stereo not given) is ____.
[A] 110 °C

[Q] Fill blank: measured melting point of the compound `NS(=O)(=O)c1cc2c(cc1Cl)NCN(CCO)S2(=O)=O` is ____.
[A] 199 to 203 °C

[Q] Fill blank: measured melting point of the compound `O=C(CN1C(=O)c2ccccc2S1(=O)=O)OC1CCCCC1` is ____.
[A] 83 °C

[Q] Fill blank: measured melting point of the compound `Cc1cc(F)ccc1Oc1ccc(C2=CC=CN3CCS(=O)(=O)N=C23)cc1` is ____.
[A] 240 to 242 °C

[Q] Fill blank: measured melting point of the compound C=C(C)c1ccc(C2C(C(=O)c3ccc(C(C)C)cc3)=C(O)C(=O)N2c2ccc(C)nn2)cc1 (stereo not given) is ____.
[A] 274 °C

[Q] Fill blank: measured melting point of the compound `Cc1cc2c(=O)c(C(=O)O)cn(-c3cc(N)c(F)cc3F)c2c([N+](=O)[O-])c1F` is ____.
[A] 236 to 242 °C

###

Measured melting point values are reported for all entries that follow.

As a guide, the following entries are already answered.
1. CNC(=O)c1cnn(-c2ccc(Cl)cc2C(F)(F)F)c1C#N | 162 to 164 °C
2. Cc1cc(C)c2ncc(NC(=O)Nc3cc(C(C)C)c(O)c(C(C)C)c3)c(-c3ccccc3Cl)c2c1 | 194 to 196 °C

[Q] Fill blank: measured melting point of the molecule `O=C1NCCc2ccc(OCCCCN3CCN(c4cccc5c4OCCCO5)CC3)nc2N1` is ____.
[A] 78 to 79 °C

[Q] Fill blank: measured melting point of the molecule `O=C(c1ccccc1)N1CCC2(CCc3c2[nH]c2ccccc32)CC1` is ____.
[A] 231 to 232 °C

[Q] Fill blank: measured melting point of the molecule `Cc1nc(/C=C/c2cccc(Cl)c2F)no1` is ____.
[A] 95 to 98 °C

###

Measured melting point values are reported for all entries that follow.

As a guide, the following entries are already answered.
1) O=C(Cn1c(-c2cccc(Cl)c2)nc2cccnc21)N1CCCCC1 | 140 to 150 °C
2) COC(=O)c1ccc(OCC2CC(=O)N(c3ccc(OC(C)(C)C)cc3)C2)cc1 (stereo unspecified) | 126 to 128 °C
3) N#CC(=C(Cl)c1ccc(Br)cc1)c1ccccc1 | 128 to 130 °C
4) Cc1[nH]nc(Oc2c(Cl)cc(C(F)(F)F)cc2Cl)c1Cl | 156 to 158 °C
5) CC(=O)c1nc2cc(C)c(F)cc2s1 | 152 to 153 °C

[Q] Fill blank: measured melting point of the compound COc1ccc(CC(=O)NC(NC(Cc2ccccc2C)=NC#N)C(C)(C)C)cc1 (stereo unspecified) is ____.
[A] 199 to 201 °C

[Q] Fill blank: measured melting point of the compound CCCN(CC(O)C(Cc1ccccc1)NC(=O)C(C)CS(C)(=O)=O)S(=O)(=O)c1ccc(OC)cc1 (stereo unspecified) is ____.
[A] 88 to 92 °C

[Q] Fill blank: measured melting point of the compound `CCOC(=O)c1cc2c(cn1)[nH]c1ccc([N+](=O)[O-])c(OCc3ccccc3)c12` is ____.
[A] 254 °C

[Q] Fill blank: measured melting point of the compound CCOC(=O)c1ncn2c1C1C=CCN1C(=O)c1c(F)cccc1-2 (stereo unspecified) is ____.
[A] 200 to 201 °C
